I'd appreciate it if you could supply inhibition values for the items below.
Target: Protein-tyrosine kinase 2-beta (Homo sapiens) (UniProt Q14289);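 also: reported as mean percent inhibition of PYK2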
Sequence (Q14289 whole entry, looked up): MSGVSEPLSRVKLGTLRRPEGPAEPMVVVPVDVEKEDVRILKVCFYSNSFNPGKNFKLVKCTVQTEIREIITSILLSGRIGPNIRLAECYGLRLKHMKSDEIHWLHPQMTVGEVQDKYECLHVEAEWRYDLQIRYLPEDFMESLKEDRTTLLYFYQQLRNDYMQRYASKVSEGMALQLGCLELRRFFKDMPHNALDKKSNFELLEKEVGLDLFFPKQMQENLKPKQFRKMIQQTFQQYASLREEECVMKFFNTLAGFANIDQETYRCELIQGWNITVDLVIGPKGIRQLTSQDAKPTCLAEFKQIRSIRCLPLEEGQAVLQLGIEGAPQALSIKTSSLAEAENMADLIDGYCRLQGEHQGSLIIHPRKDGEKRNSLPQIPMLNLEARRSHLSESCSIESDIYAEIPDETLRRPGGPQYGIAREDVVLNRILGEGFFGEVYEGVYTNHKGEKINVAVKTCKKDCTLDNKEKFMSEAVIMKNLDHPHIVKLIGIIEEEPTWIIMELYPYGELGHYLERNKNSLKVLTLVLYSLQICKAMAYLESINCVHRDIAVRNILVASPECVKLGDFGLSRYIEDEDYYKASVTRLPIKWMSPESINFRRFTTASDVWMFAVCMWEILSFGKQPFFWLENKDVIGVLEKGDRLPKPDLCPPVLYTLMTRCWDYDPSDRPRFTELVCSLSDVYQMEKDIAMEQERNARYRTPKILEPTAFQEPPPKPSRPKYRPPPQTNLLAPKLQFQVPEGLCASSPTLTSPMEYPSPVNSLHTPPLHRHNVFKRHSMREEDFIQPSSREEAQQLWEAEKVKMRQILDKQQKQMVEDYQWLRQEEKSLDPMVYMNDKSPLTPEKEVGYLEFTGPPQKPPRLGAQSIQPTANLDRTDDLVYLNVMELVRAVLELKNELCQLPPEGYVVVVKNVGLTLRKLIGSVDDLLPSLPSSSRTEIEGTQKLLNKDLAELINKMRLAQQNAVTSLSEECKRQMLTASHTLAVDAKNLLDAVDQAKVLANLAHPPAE
Conditions: at 0.1 µM
Numbers only, in %.

COc1ccc(-c2nn3ncccc3c2-c2ccnc(Nc3ccc4c(c3)OCCO4)n2)cc1: -3.39

Your task in this section: give inhibition for each listed record.
1. CCn1c(-c2nonc2N)nc2c(C#CC(C)(C)O)nc(OC[C@H](N)c3ccccc3)cc21
2. CS(=O)(=O)CCNCc1ccc(-c2ccc3ncnc(Nc4ccc(OCc5ccccc5)c(C(F)(F)F)c4)c3c2)o1
3. CCc1nn2ncccc2c1-c1ccnc(NC2CC2)n1
4. CC1=C(C(=O)Nc2cc(Cl)c3[nH]ncc3c2)C(c2ccc(C(F)(F)F)cc2)CC(=O)N1 (stereo not given)
5. NS(=O)(=O)c1ccc(N/N=C2\C(=O)Nc3ccc4ncccc4c32)cc1
6. Cc1ccc(O)cc1Nc1ccnc2cc(-c3ccccn3)ccc12
7. COc1ccc(-c2cc3c(N)ncnc3o2)cc1

1. 1.28
2. 8.29
3. -3.19
4. 5.71
5. 6.43
6. 10.1
7. -4.88

I need inhibition for every entry listed below, if you could help.
1. O=C(Nc1n[nH]c2cc(-c3ccc(F)cc3)ccc12)C1CC1
2. COC(=O)Nc1nc2ccc(Oc3ccc(NC(=O)Nc4cccc(Cl)c4)cc3)cc2[nH]1

9.12
0.45

---

Target: Leucine-rich repeat serine/threonine-protein kinase 2 (Homo sapiens) (UniProt Q5S007);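 also: mean percent inhibition of LRRK2 measured in the GSK PKIS kinase inhibitor set screen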
Sequence (Q5S007 whole entry): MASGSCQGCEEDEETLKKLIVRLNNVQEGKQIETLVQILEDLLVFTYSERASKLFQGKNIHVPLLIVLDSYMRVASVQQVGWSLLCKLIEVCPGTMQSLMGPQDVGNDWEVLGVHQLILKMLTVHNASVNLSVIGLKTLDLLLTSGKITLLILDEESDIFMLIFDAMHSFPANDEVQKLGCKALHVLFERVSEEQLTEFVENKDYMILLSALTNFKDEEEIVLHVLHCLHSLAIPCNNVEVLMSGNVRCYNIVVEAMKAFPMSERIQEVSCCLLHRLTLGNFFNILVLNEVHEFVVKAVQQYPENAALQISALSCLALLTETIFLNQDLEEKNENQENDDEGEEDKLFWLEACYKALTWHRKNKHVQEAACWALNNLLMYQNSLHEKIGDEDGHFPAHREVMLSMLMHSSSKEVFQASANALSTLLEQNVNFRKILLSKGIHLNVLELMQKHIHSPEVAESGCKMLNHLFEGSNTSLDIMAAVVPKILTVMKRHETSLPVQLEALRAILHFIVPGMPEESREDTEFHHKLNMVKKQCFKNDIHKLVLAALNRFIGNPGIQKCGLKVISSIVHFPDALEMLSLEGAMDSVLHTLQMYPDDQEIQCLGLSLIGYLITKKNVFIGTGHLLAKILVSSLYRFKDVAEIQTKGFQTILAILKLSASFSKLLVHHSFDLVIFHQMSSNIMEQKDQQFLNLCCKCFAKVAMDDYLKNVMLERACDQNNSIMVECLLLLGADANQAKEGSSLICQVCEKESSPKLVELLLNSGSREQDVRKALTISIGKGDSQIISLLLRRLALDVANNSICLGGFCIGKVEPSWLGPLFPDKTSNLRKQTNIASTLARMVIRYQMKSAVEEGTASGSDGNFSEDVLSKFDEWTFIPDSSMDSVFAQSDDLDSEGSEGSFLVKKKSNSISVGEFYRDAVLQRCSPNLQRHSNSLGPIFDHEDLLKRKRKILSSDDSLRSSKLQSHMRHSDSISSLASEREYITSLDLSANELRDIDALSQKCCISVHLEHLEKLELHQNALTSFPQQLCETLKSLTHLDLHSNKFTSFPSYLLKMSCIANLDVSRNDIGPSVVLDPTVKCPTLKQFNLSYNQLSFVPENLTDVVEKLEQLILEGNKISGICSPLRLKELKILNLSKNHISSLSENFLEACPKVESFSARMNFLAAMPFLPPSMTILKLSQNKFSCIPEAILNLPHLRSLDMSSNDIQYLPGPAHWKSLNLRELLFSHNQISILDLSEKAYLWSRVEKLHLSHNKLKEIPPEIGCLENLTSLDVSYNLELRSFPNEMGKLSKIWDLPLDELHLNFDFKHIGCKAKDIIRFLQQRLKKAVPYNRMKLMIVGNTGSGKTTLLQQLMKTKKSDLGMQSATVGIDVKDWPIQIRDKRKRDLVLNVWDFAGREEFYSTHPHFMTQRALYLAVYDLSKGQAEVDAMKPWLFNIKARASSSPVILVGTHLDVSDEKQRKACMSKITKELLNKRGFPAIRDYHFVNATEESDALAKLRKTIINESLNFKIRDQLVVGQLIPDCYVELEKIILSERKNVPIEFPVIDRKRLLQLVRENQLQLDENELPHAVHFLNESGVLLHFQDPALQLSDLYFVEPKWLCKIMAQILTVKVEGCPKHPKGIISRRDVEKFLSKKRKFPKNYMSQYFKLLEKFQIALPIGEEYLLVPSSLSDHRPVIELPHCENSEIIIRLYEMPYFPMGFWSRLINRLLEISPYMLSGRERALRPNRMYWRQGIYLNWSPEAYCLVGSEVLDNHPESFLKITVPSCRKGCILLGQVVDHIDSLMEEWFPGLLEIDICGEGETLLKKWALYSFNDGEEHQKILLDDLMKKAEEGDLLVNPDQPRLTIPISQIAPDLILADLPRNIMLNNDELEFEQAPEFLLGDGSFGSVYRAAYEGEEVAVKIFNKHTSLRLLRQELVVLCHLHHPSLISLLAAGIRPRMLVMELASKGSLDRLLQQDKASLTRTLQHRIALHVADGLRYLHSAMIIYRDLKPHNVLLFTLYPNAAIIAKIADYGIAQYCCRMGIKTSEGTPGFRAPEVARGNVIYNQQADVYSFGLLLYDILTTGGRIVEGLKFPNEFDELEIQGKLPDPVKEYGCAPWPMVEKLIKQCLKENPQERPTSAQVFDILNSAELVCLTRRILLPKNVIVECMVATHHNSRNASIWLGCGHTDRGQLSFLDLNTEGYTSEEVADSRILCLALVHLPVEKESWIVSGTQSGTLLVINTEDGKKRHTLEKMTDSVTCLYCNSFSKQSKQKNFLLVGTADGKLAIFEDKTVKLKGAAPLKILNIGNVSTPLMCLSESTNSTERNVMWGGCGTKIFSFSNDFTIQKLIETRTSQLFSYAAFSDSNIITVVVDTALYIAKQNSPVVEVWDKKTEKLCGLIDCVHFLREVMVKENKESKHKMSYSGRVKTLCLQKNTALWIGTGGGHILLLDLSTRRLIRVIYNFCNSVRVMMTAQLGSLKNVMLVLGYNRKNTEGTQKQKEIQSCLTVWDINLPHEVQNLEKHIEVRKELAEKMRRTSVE
Settings: at 1 µM
Answer each item with its documented inhibition.
Answers are plain numbers, in %.

CC1=C(C(=O)Nc2cc(Cl)c3[nH]ncc3c2)C(c2ccc(C(F)(F)F)cc2)CC(=O)N1 (stereo not given): 4.9
CCn1c(-c2nonc2N)nc2ccccc21: 8.23
CC(=O)NCc1cccc(C#Cc2cncnc2Nc2ccc(OCc3cccc(F)c3)c(Cl)c2)c1: 7.51
CN(C)CCOc1ccc(-c2nc(-c3ccncc3)c(-c3ccc4c(c3)CC/C4=N\O)[nH]2)cc1: 6.56

Below: the item to evaluate.
Name the recorded inhibition for COc1cccc(-c2c[nH]c3c(N/N=C/c4ccncc4)ncnc23)c1 .
14

---

Molecular target: Mitogen-activated protein kinase 3 (Homo sapiens);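 also: values are mean percent inhibition of MAPK3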
Settings: at 1 µM
True means recorded inhibition is 4% or above; False means it is below 4%.

Example entries and their recorded answers appear below.
N#Cc1c(NC(=O)CN2CCOCC2)sc2c1CCCC2: True
c1ccc(-c2nc3n(c2-c2ccc4c(c2)OCO4)CCC3)nc1: False
COc1cc(N2CCN(C(C)C)CC2)ccc1Nc1nc(Nc2ccc(F)cc2C(N)=O)c2cc[nH]c2n1: True

Next item in the queue.
Quick check: does FC(F)(F)c1cccc(-c2nn3ncccc3c2-c2ccnc(Nc3ccc4c(c3)OCCO4)n2)c1 have inhibition greater than or equal to 4%?
False

---

Molecular target: Death-associated protein kinase 1 (Homo sapiens) (UniProt P53355);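 also: each value is a mean inhibition figure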
Sequence (P53355 whole entry, looked up): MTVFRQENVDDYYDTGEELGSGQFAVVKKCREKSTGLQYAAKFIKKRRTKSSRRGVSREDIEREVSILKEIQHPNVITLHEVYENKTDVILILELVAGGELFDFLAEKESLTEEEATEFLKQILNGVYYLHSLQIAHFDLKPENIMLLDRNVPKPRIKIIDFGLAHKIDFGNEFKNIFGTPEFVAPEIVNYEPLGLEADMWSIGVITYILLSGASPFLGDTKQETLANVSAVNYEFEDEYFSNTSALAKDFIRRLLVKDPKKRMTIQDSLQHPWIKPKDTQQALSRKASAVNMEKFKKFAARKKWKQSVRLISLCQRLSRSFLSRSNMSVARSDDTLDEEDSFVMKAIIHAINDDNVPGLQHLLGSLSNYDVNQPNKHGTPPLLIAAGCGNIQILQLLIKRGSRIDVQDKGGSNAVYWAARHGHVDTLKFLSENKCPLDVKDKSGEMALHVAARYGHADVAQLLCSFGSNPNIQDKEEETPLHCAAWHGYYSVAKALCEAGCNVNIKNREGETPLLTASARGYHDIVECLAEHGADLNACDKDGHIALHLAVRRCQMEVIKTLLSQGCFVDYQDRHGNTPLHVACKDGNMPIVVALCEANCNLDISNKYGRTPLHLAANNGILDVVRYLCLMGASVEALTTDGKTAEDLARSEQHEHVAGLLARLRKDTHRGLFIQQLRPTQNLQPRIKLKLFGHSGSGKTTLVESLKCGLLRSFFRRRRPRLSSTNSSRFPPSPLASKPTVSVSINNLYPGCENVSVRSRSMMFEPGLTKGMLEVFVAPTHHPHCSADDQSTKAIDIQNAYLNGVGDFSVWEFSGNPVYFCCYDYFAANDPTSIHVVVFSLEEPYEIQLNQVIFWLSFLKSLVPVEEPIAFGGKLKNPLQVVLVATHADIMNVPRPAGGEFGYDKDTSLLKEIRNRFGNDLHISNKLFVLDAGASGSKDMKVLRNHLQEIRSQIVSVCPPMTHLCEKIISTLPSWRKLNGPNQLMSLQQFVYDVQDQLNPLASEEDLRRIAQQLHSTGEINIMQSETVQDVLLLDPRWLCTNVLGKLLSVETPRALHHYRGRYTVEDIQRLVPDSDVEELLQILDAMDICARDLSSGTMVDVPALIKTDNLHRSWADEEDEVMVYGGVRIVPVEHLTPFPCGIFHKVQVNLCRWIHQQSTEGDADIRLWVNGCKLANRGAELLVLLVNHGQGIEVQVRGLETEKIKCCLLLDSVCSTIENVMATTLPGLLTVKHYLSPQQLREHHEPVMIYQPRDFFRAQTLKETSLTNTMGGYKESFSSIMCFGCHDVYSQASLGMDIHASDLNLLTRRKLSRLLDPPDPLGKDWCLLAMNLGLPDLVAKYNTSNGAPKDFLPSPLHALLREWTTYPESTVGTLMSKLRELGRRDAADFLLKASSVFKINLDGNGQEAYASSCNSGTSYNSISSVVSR
Settings: at 1 µM
property: inhibition (%)
Give bare numbers, in %.

Below, each entry is followed by its recorded inhibition result.
CN1CCC(n2cnc(-c3ccc(F)cc3)c2-c2ccnc(N)n2)CC1: 2.09
Nc1nc(-c2ccc(F)cc2)c(-c2ccc3ncccc3n2)s1: 4.25
O=C(O[C@H]1CN[C@H](C#Cc2cc3ncnc(Nc4ccc(Cc5ccccc5)cc4)c3s2)C1)N1CCOCC1: 2.13

// for each compound below, give its inhibition
1. CCCN(CCS(C)(=O)=O)Cc1ccc(-c2ccc3ncnc(Nc4ccc(OCc5cccc(F)c5)c(Cl)c4)c3c2)o1
2. CC(C)COC(=O)c1ccc2c(c1)/C(=C/Nc1ccc(S(N)(=O)=O)cc1)C(=O)N2

[8.65, 3.08]
